assay: Concentrations in rat plasma and brain (IP1 study); type: in vivo; details: Long-Evans, brain (hippocampus), po; rat hippocampus, 1 mg/kg p.o., 2 h; mean ± SD; read-out: Brain concentration
Attribute Measured: concentration at 2 h (ng/g)
Give the quantity in ng/g, number only.

Task: Which concentration at 2 h is listed for Cc1ccc(Cc2cc3c(=O)n([C@H]4CCCC[C@@H]4O)cnc3c3ccccc23)cn1 [MK‐7622, reference compound] ?
Output: 14.5

====

test: Concentrations in plasma and brain of wild-type and M1R KO mice; type: in vivo; details: mouse, brain (hippocampus), po, 20 mg/kg, M1R KO mice hippocampus, 20 mg/kg p.o.; mean ± SD; read-out: Brain concentration
Attribute Measured: concentration at 2 h
Please make sure the unit comes right after the number.

Task: Which concentration at 2 h is listed for Cc1ccc(Cc2cc3c(=O)n([C@H]4CCCC[C@@H]4O)cnc3c3ccccc23)cn1 [MK‐7622, reference compound] ?
Output: 456 ng/g

====

experiment: Concentrations in plasma and brain of wild-type and M1R KO mice; assay type: in vivo; details: mouse, plasma, po, 10 mg/kg, wild-type mice, 10 mg/kg p.o.; mean ± SD, n = 10; read-out: Plasma concentration
Attribute Measured: concentration at 2 h (ng/mL)
Give the quantity in ng/mL, number only.

Task: Which concentration at 2 h is listed for Cc1c(Cc2ccc(Cl)nc2)cc2c(c1Cl)OCN([C@H]1CCC[C@@H]1O)C2=O [T‐495] ?
Output: 1690

====

Kindly supply the reported concentration at 2 h values for the records listed here.
Test: Concentrations in mouse plasma and brain after single and repeated treatment
Type: in vivo
Conditions: C57BL/6J, plasma, oral, 30 mg/kg, vehicle-pretreated, 30 mg/kg p.o., mean ± SD, n = 10, read-out: Plasma concentration
Description: Eight‐week‐old Long‐Evans rats, 8‐ to 9‐week‐old C57BL/6J mice, and 22‐ or 29‐week‐old M1R KO mice and their WT littermates were used in this study. […] IP1 and protein concentrations in the diluted supernatant were measured using IP‐One HTRF assay kit (Cisbio Bioassays) and BCA Protein Assay Kit (Thermo Fisher Scientific Inc), respectively, according to the manufacturers’ instructions. IP1 production was expressed as the ratio of IP1 to protein concentrations.
Give the quantity in ng/mL, number only.

Task: Which concentration at 2 h is listed for Cc1ccc(Cc2cc3c(=O)n([C@H]4CCCC[C@@H]4O)cnc3c3ccccc23)cn1 [MK‐7622, reference compound] ?
Output: 2340

Task: Queued: Cc1c(Cc2ccc(Cl)nc2)cc2c(c1Cl)OCN([C@H]1CCC[C@@H]1O)C2=O
Output: 4890

====

Kindly supply the reported Kp at 2 h values for the records listed here.
assay: Concentrations in rat plasma and brain (IP1 study); assay type: in vivo; settings: Long-Evans, brain/plasma, po; rat, 3 mg/kg p.o.; mean ± SD; read-out: Kp (brain‐to‐plasma concentration ratio)
Lab note: record the figure alone, no unit after it.

Task: Which Kp at 2 h is listed for Cc1c(Cc2ccc(Cl)nc2)cc2c(c1Cl)OCN([C@H]1CCC[C@@H]1O)C2=O [T‐495] ?
Output: 1.4

Task: Queued: Cc1ccc(Cc2cc3c(=O)n([C@H]4CCCC[C@@H]4O)cnc3c3ccccc23)cn1 [MK‐7622, reference compound]
Output: 0.19

====

test: Concentrations in mouse plasma and brain after single and repeated treatment; assay type: in vivo; conditions: C57BL/6J, brain (hippocampus), oral, 30 mg/kg, mouse hippocampus, vehicle-pretreated, 30 mg/kg p.o., mean ± SD, read-out: Brain concentration
Attribute Measured: concentration at 2 h (ng/g)
Give the quantity in ng/g, number only.

Task: Which concentration at 2 h is listed for Cc1ccc(Cc2cc3c(=O)n([C@H]4CCCC[C@@H]4O)cnc3c3ccccc23)cn1 [MK‐7622, reference compound] ?
Output: 787

Task: Queued: Cc1c(Cc2ccc(Cl)nc2)cc2c(c1Cl)OCN([C@H]1CCC[C@@H]1O)C2=O
Output: 3650

====

assay: Concentrations in rat plasma and brain (IP1 study); assay type: in vivo; conditions: Long-Evans, brain/plasma, po; rat, 30 mg/kg p.o.; mean ± SD; read-out: Kp (brain‐to‐plasma concentration ratio)
Attribute Measured: Kp at 2 h
Lab note: record the figure alone, no unit after it.

Task: Which Kp at 2 h is listed for Cc1c(Cc2ccc(Cl)nc2)cc2c(c1Cl)OCN([C@H]1CCC[C@@H]1O)C2=O [T‐495] ?
Output: 1
